- assay_info: Primary qHTS for delayed death inhibitors of the malarial parasite plastid, 48 hour incubation
- measurement_conditions: P. falciparum luciferase growth in erythrocytes; series mostly up to 28.7 µM
Hit rate of the full screen: of about 310,000 compounds, about 18,000 (5.8%) were called active. Another 22% or so got no clear call; they are omitted. The call rests on the fitted dose curve; in most records, active means well fitted inhibition curve with a large enough effect; inconclusive means small, poorly fitted or top-dose-only effect, or another doubt; inactive means no such curve, though single readings can be large or run the other way. The sample holds actives, similar compounds and a random draw of the others, so the mix is not that of the screen.
Choose one outcome from this list and give only that: active, inactive

| compound | label |
| --- | --- |
| Cc1cc(C)c(S(=O)(=O)c2cc(F)ccc2C)c(=O)[nH]1 | inactive |

Ask | Call for entry `COc1ccc(CCNC2=C(Cl)C(=O)N(Cc3ccccc3)C2=O)cc1OC` :
Reply | active

Ask | Input `O=C(CN1C(=O)NC2(CCCC2)C1=O)OCCOc1ccc(F)cc1`
Reply | inactive

Ask | And for `CN(CCNC(=O)c1cc2c(-c3ccccc3F)nn(C)c2s1)C1CCCCC1` ?
Reply | active

Ask | Entry to check: `Cc1cccc(NC(=O)c2cccnc2Cl)n1`
Reply | inactive

Ask | How about this compound: `CCN1CCN(c2ccc([N+](=O)[O-])cc2C#N)CC1`
Reply | active

Ask | Request: COc1ccc(C(=O)C2CCCN(S(=O)(=O)c3cccc(C)c3)C2)c(C)c1 (stereo not given)
Reply | inactive

Ask | Cool, now `CN(CC(=O)NCCc1ccc(F)cc1)CC(=O)Nc1ccc(F)c(F)c1F`
Reply | inactive

Ask | Let us now turn to `COc1ccccc1CNC(=O)C1CCN(C(=O)[C@@H]2Cc3ccccc3CN2)CC1`
Reply | inactive

Ask | And for CCOC(=O)CC1COCCN1C(=O)c1cc(COc2ccc(F)c(F)c2)on1 (stereo not given) ?
Reply | inactive

---

- assay_info: Primary qHTS for delayed death inhibitors of the malarial parasite plastid, 48 hour incubation
- measurement_conditions: P. falciparum luciferase growth in erythrocytes; series mostly up to 28.7 µM
In all, about 310,000 compounds went through this assay and about 18,000 (5.8%) were called active. Inconclusive results (about 22%) are left out. Calls follow the shape of the dose curve; as a rule, active = well fitted inhibition curve with a large enough effect; inconclusive = small, poorly fitted or top-dose-only effect, or another doubt; inactive = no such curve, though single readings can be large or run the other way. Many of the other results were omitted from the sample, so actives are more common in it than they were.
Just give me one of these, please: True (active), False (inactive)

Would you please look over these solved cases?
| molecule | label |
| --- | --- |
| COC(=O)c1ccc(OC(=O)c2cnccn2)cc1 | False |
| O=C(CSc1nc2ccccc2[nH]1)N/N=C/C=C\c1ccccc1[N+](=O)[O-] | False |
| Cc1ccc(C(CNC(=O)Nc2ccccc2)N2CCN(C)CC2)cc1 (stereo not given) | False |
| C[C@H](NC(=O)C1CC(=O)N(c2ccc3c(c2)OCCO3)C1)C(=O)N1CCC(C(=O)O)CC1 (stereo not given in full) | False |
| C=CCNc1nc(N)c([N+](=O)[O-])c(NC2CCCCC2)n1 | True |

Ask | Identify the outcome logged in this assay for the molecule shown: `O=C(Nc1ccc(N2C(=O)c3cccc4cccc(c34)C2=O)cc1)c1ccc(N2CCCCC2)c([N+](=O)[O-])c1`
Reply | False

Ask | // query: `Nc1nc(Nc2ccccc2)nc(NCCO)c1[N+](=O)[O-]`
Reply | False

Ask | Please answer likewise for C[n+]1ccccc1C1CCCC/C1=N\Nc1ccc([N+](=O)[O-])cc1[N+](=O)[O-] (stereo not given)
Reply | True

Ask | Same for O=[N+]([O-])c1ccc(N/N=C2/CCCCC2c2ccccn2)c([N+](=O)[O-])c1 (stereo not given)
Reply | False

Ask | Entry `O=C(N[C@@H](Cc1c[nH]c2ccccc12)C(=O)O)OCC1c2ccccc2-c2ccccc21` please
Reply | False

Ask | What would you report for COCCN(C(=O)CCC(=O)Nc1nccs1)C(C(=O)NCCC(C)C)c1ccc(F)cc1 (stereo not given) ?
Reply | False
